Target Under Test: PKC-βII (Homo sapiens)
Sequence (P05771 1-673 isoform P05771-2): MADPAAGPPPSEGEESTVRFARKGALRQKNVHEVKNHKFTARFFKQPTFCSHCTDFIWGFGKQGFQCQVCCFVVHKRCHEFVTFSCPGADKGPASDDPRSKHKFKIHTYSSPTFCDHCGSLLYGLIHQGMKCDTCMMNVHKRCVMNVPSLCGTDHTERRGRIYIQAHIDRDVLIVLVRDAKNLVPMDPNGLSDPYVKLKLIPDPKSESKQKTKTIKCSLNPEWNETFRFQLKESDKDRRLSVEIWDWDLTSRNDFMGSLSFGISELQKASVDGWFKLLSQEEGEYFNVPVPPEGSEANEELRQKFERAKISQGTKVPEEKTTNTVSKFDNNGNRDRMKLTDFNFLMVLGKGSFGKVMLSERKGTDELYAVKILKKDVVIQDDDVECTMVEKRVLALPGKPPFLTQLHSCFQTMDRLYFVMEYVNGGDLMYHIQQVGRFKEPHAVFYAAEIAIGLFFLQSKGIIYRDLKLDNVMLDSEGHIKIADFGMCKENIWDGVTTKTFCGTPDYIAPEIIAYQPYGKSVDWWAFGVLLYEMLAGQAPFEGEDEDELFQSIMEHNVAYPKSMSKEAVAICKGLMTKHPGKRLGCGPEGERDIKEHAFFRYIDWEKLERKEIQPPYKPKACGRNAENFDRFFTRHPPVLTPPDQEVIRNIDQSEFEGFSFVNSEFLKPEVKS
Experimental Protocol: ELISA-based competitive binding assay with purified PKC isoform
Design: key: —: no detectable affinity; Low to very low affinity at 10X or 20X or both PRE concentrations in at least one cell line in the cell extract assay; Low affinity in purified isoform assay.; Moderate affinity at 10X or 20X or both PRE concentrations in at least one cell line in the cell extract assay.; High affinity at 10X or 20X or both PRE concentrations in at least one cell line in the cell extract assay; High affinity in purified isoform assay
Applied Conditions: Purified isoform
[ ]: non-standard residue; d: D form.
Metric Name: Affinity for PKC isoform βII

Ac-KDAQNLI-NH2 [PRE 12]: —
ILEDKGGDAQNLIGISI [PRE 8]: —
Ac-RDAQNLIGISI-NH2 [PRE 11]: —
Ac-isigilqnadk-NH2 (Ac-[dI][dS][dI]G[dI][dL][dQ][dN][dA][dD][dK]-NH2; SMILES CC[C@@H](C)[C@@H](NC(C)=O)C(=O)N[C@H](CO)C(=O)N[C@@H](C(=O)NCC(=O)N[C@@H](C(=O)N[C@H](CC(C)C)C(=O)N[C@H](CCC(N)=O)C(=O)N[C@H](CC(N)=O)C(=O)N[C@H](C)C(=O)N[C@H](CC(=O)O)C(=O)N[C@H](CCCCN)C(N)=O)[C@H](C)CC)[C@H](C)CC) [PRE 9]: H

Lab note: next substance to report on.
Request: Fill blank: measured Affinity for PKC isoform βII of the substance Ac-ISIGILNQADK-NH2 [PRE 10] is ____.
Result: L

---

Target Under Test: PKC-α (Homo sapiens, UniProt P17252)
Experimental Protocol: Competitive binding assay using cell extracts (Western blot)
Design: endogenous PKC-α in (A) untreated human neuroblastoma (IMR-32) cells; endogenous in cells; host or cells: IMR-32 human neuroblastoma cells
Applied Conditions: Cell extract; PRE 10X or 20X antibody concentration
[ ]: non-standard residue; d: D form.
Metric Name: Affinity for PKC isoform α

Consider the following illustrative entries.
Ac-RDAQNLI-NH2 [PRE 13]: M/H
Ac-isigilqnadk-NH2 (Ac-[dI][dS][dI]G[dI][dL][dQ][dN][dA][dD][dK]-NH2; SMILES CC[C@@H](C)[C@@H](NC(C)=O)C(=O)N[C@H](CO)C(=O)N[C@@H](C(=O)NCC(=O)N[C@@H](C(=O)N[C@H](CC(C)C)C(=O)N[C@H](CCC(N)=O)C(=O)N[C@H](CC(N)=O)C(=O)N[C@H](C)C(=O)N[C@H](CC(=O)O)C(=O)N[C@H](CCCCN)C(N)=O)[C@H](C)CC)[C@H](C)CC) [PRE 9]: M/L
Ac-KDANQLIGISI-NH2 [PRE 6]: H/L
Ac-RDAQNLIGISI-NH2 [PRE 11]: H/L
Ac-ISIGILNQADK-NH2 [PRE 10]: H/L
ILEDKGGDAQNLIGISI [PRE 8]: M/L
Ac-ISIGILQNADK-NH2 (not fully specified; printed as Ac-ISIGILQNADK-NH2) [PRE 7]: L
RRKKGGKDFVVKR [PRE 1]: H

Request: Fill blank: measured Affinity for PKC isoform α of the substance Ac-KDAQNLI-NH2 [PRE 12] is ____.
Result: —
